System: mycobacterial serine protease (Seva TB ES-31)
Format: biochemical, Mycobacterium tuberculosis H37Ra
In this section, each of the compounds is paired with its reported Residual activity (%).
assay-metric: Residual activity (%)

INSERT INTO assay_data (compound, assayed_system, unit_info, experimental_value) VALUES
  ('O=S(=O)(F)Cc1ccccc1 [Phenyl methyl sulphonyl fluoride (PMSF), Phenyl methyl sulphonyl fluoride]', 'mycobacterial serine protease (Seva TB ES-31)', '%', 19.6),
  ('c1cnc2c(c1)ccc1cccnc12 [1,10 Phenanthroline]', 'mycobacterial serine protease (Seva TB ES-31)', '%', 22.4),
  ('O=C(O)CN(CCN(CC(=O)O)CC(=O)O)CC(=O)O [Ethylene diamine tetracetic acid (EDTA), Ethylene diamine tetracetic acid]', 'mycobacterial serine protease (Seva TB ES-31)', '%', 35.3),
  ('Cl.NCCc1ccc(S(=O)(=O)F)cc1 [Pefabloc]', 'mycobacterial serine protease (Seva TB ES-31)', '%', 7.56);

Hey, just so you know, these numbers are from patent US20090011442A1.
